Biological target: AChE (Electrophorus electricus)
Sequence (O42275 24-633): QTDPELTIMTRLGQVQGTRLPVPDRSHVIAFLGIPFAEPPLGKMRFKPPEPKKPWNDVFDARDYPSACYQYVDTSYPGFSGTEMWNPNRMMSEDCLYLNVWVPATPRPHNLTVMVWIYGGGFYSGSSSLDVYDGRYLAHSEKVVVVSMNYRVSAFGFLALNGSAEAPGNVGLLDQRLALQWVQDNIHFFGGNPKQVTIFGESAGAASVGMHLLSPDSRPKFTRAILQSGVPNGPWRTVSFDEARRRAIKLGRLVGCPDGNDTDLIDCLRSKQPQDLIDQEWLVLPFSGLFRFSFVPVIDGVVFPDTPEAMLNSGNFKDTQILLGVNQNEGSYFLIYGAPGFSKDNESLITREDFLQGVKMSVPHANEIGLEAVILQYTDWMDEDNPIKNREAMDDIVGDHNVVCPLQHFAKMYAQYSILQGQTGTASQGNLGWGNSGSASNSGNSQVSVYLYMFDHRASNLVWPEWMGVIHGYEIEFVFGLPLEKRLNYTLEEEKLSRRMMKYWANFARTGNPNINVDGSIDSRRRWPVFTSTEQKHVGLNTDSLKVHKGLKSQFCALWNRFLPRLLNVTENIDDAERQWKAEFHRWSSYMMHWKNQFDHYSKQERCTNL
Conditions: read-out: IC50,D; isolated AChE, 30 min in the dark, read 35 min after DTNB addition
Procedure: Among all enzymes involved in transmembrane signaling, another important one is AChE. […] The conversion of 5,5′-dithiobis(2-nitrobenzoic acid) (DTNB) to yellow 2-nitro-5-thiobenzoate (TNB) initiated by the addition of acetylthiocholine was then detected by UV–vis spectroscopy every 5 min for a total time of 35 min. […] The absorbance was read at a microplate Tecan reader at 410 nm every 5 min for in total 40 min.
pIC50: −log10 of the molar value.
attribute-measured: pIC50

Qu. Quickly give me recorded pIC50 for CSCCO.F[P-](F)(F)(F)(F)F.F[P-](F)(F)(F)(F)F.[Ru+2].c1ccc(-c2cccc(-c3ccccn3)n2)nc1.c1ccc2cc(Nc3cc4ccccc4cn3)ncc2c1 [[3](PF6)2]
Ans. 5.02

Qu. # return recorded pIC50 for entry CSCCO.F[P-](F)(F)(F)(F)F.F[P-](F)(F)(F)(F)F.[Ru+2].c1ccc(-c2cccc(-c3ccccn3)n2)nc1.c1ccc(-c2ccccn2)nc1 [[1](PF6)2]
Ans. < 4.82

Qu. Determine its reported pIC50: CSCCO.F[P-](F)(F)(F)(F)F.F[P-](F)(F)(F)(F)F.[Ru+2].c1ccc(-c2cccc(-c3ccccn3)n2)nc1.c1ccc2cc(-c3cc4ccccc4cn3)ncc2c1 [[2](PF6)2]
Ans. < 4.82
